# experimentalSystem: T1, human FLT3 (hFLT3) (human, UniProt P36888 27-543)
# T1 construct: also called huFlt3; Fms-Like Tyrosine Kinase 3
# T1 sequence (looked up): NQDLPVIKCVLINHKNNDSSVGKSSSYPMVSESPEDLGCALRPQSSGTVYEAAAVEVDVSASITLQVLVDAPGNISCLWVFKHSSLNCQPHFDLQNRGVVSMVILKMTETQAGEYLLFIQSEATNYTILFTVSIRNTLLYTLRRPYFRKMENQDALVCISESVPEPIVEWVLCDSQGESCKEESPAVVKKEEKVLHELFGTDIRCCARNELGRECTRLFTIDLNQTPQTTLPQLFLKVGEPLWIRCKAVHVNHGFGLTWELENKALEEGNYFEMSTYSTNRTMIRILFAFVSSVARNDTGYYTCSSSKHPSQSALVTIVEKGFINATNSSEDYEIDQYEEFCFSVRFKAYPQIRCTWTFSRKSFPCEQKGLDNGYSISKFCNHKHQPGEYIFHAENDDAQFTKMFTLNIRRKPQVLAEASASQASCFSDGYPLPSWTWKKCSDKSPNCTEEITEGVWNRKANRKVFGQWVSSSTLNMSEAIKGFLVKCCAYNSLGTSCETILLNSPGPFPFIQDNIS
# protocol: SPR (Biacore T200), 37 C; IgG captured on anti-human Fc, hFLT3 as analyte
# Description: All experiments were performed on a Biacore T200 surface Plasmon resonance biosensor (GE Lifesciences, Piscataway N.J.). […] The experiments were performed at 37° C. using a running buffer of 10 mM HEPES, 150 mM NaCl, 0.05% (v/v) Tween-20, pH 7.4, 1 mg/mL BSA. […] After the analyte injection, dissociation was monitored for 10 minutes followed by regeneration of all flow cells with three 1-minute injections of 75 mM Phosphoric Acid. […]

{"binder": "P1B11 (IgG format) (antibody, V domains shown, IgG format, captured by anti-human Fc) VH: QVQLVQSGAEVKKPGSSVKVSCKASGGTFRSFDISWVRQAPGQGLEWMGRIIPILGYANYAQKFQGRVTITADESTSTAYMELSSLRSEDTAVYYCASDLGAPWAGYPFDPWGQGTLVTVSS VL: EIVLTQSPGTLSLSPGERATLSCRASQSVSSSELAWYQQKPGQAPRLLIYDASSRATGIPDRFSGSGSGTDFTLTISRLEPEDFAVYYCQQYDSSPLTFGQGTKVEIK", "unitText": "nM", "Kd": 45}
